# testSystem: Glutamate receptor ionotropic, NMDA 1 (Rattus norvegicus)
# experimentNotes: In vitro ability to displace [3H]L-689,560 binding to glycine site on the N-methyl-D-aspartate (NMDA) glutamate receptor 1 from rat cortical membranes
readoutName: IC50 (µM)
Report as a plain number; the unit µM is understood.

Look over these answered cases.
smiles	testSystem	unitTag	IC50
O=C(O)CC(=O)Nc1c(-c2ccccc2)c(=O)[nH]c2cc(Cl)ccc12	Glutamate receptor ionotropic, NMDA 1 (Rattus norvegicus)	µM	1.1
N#CCOc1c(-c2ccccc2)c(O)nc2cc(Cl)ccc12	Glutamate receptor ionotropic, NMDA 1 (Rattus norvegicus)	µM	0.32

input: Let me know recorded IC50 for O=C(O)Cc1c(-c2ccccc2)c(=O)[nH]c2cc(Cl)ccc12 , thanks.
output: 0.16

input: Let me know recorded IC50 for CN(C)CCNC(=O)C(=O)Nc1c(-c2ccccc2)c(O)nc2cc(Cl)ccc12 , thanks.
output: 25

input: Let me know recorded IC50 for CC(=O)Nc1c(-c2ccccc2)c(O)nc2cc(Cl)ccc12 , thanks.
output: 14.7

input: Let me know recorded IC50 for Nc1c(-c2ccccc2)c(=O)[nH]c2cc(Cl)ccc12 , thanks.
output: 6.7

input: Let me know recorded IC50 for O=C(O)COc1c(-c2cccc(Oc3ccccc3)c2)c(=O)[nH]c2cc(Cl)ccc12 , thanks.
output: 0.024

---

# testSystem: UniProtKB P35439
# experimentNotes: Evaluated to antagonize NMDA responses in a rat cortical slice preparations
# Type: functional
# Kb annotations
Write your answer as a measured quantity: the number, then the unit.

Look over these answered cases.
smiles	Kb
N#CCOc1c(-c2ccccc2)c(O)nc2cc(Cl)ccc12	4.7 µM
O=C(O)c1c(-c2ccccc2)c(O)nc2cc(Cl)ccc12	1.3 µM
C/C(COc1c(-c2ccccc2)c(O)nc2cc(Cl)ccc12)=N\O	2.8 µM
NC(=O)COc1c(-c2ccccc2)c(O)nc2cc(Cl)ccc12	3.1 µM

input: Let me know recorded Kb for CC(=O)COc1c(-c2ccccc2)c(O)nc2cc(Cl)ccc12 , thanks.
output: 11.4 µM

---

# System: Mus musculus
# experimentNotes: Evaluated in vivo for their ability to protect against audiogenic seizure in DBA/2 mice when administered 20 mg/kg ip 30 min prior to noise stimulation out of 8 mice tested
# conditionContext: route intraperitoneal
# No. of mice protected annotations
Returns: the value as a bare number; no unit string appended.

smiles	endpointResult
O=C(O)CC(=O)Nc1c(-c2ccccc2)c(O)nc2cc(Cl)ccc12	2
N#CCCc1c(-c2ccccc2)c(O)nc2cc(Cl)ccc12	0
Oc1nc2cc(Cl)ccc2c(NCc2ccccc2)c1-c1ccccc1	1

input: Let me know recorded No. of mice protected for O=C(O)COc1c(-c2cccc(Oc3ccccc3)c2)c(O)nc2cc(Cl)ccc12 , thanks.
output: 0

input: Let me know recorded No. of mice protected for O=C(O)C(=O)Nc1c(-c2ccccc2)c(O)nc2cc(Cl)ccc12 , thanks.
output: 0

---

# testSystem: Glutamate receptor ionotropic, NMDA 1 (Rattus norvegicus, UniProt P35439)
# experimentNotes: In vitro ability to displace [3H]L-689,560 binding to glycine site on the N-methyl-D-aspartate (NMDA) glutamate receptor 1 from rat cortical membranes
# if measured IC50 < 3000 nM: 1  # else: 0

Some entries whose results are on file:
smiles	testSystem	classAssignment
Nc1c(-c2cccc(Oc3ccccc3)c2)c(O)nc2cc(Cl)ccc12	Glutamate receptor ionotropic, NMDA 1 (Rattus norvegicus, UniProt P35439)	1
CN(C)CCCNc1c(-c2ccccc2)c(O)nc2cc(Cl)ccc12	Glutamate receptor ionotropic, NMDA 1 (Rattus norvegicus, UniProt P35439)	0
Oc1nc2cc(Cl)ccc2c(OCc2ccccn2)c1-c1ccccc1	Glutamate receptor ionotropic, NMDA 1 (Rattus norvegicus, UniProt P35439)	1
NC(=O)CCc1c(-c2ccccc2)c(=O)[nH]c2cc(Cl)ccc12	Glutamate receptor ionotropic, NMDA 1 (Rattus norvegicus, UniProt P35439)	1
N#CCCc1c(-c2ccccc2)c(=O)[nH]c2cc(Cl)ccc12	Glutamate receptor ionotropic, NMDA 1 (Rattus norvegicus, UniProt P35439)	1

input: Decide: IC50 of COC(=O)C(=O)Nc1c(-c2ccccc2)c(O)nc2cc(Cl)ccc12 strictly below 3000 nM?
output: 1

input: Decide: IC50 of CS(=O)(=O)Nc1c(-c2ccccc2)c(O)nc2cc(Cl)ccc12 strictly below 3000 nM?
output: 1

---

# testSystem: Glutamate NMDA receptor (Rattus norvegicus) (UniProt P35439+Q00959+Q00960+Q00961+Q62645+Q8VHN2+Q9R1M7)
# experimentNotes: Evaluated to antagonize NMDA responses in a rat cortical slice preparations
# Assay type: functional
Assign classes using reported Kb values and the ranges low = under 2 µM, mid = from 2 µM up to 4 µM, high = 4 µM and over, please.

Some entries whose results are on file:
smiles	classAssignment
NC(=O)CCc1c(-c2ccccc2)c(O)nc2cc(Cl)ccc12	mid
O=C(O)CCc1c(-c2ccccc2)c(O)nc2cc(Cl)ccc12	mid
O=C(O)Cc1c(-c2ccccc2)c(O)nc2cc(Cl)ccc12	low
N#CCCc1c(-c2ccccc2)c(O)nc2cc(Cl)ccc12	high
Nc1c(-c2ccccc2)c(O)nc2cc(Cl)ccc12	high
O=C(O)COc1c(-c2ccccc2)c(O)nc2cc(Cl)ccc12	low

input: For O=c1[nH]c2cc(Cl)ccc2c(O)c1-c1ccccc1 , which Kb bin applies?
output: low

input: For Nc1c(-c2cccc(Oc3ccccc3)c2)c(O)nc2cc(Cl)ccc12 , which Kb bin applies?
output: mid

input: For O=C(O)CC(=O)Nc1c(-c2ccccc2)c(O)nc2cc(Cl)ccc12 , which Kb bin applies?
output: high

input: For O=C(O)COc1c(-c2cccc(Oc3ccccc3)c2)c(O)nc2cc(Cl)ccc12 , which Kb bin applies?
output: low

input: For COC(=O)COc1c(-c2ccccc2)c(O)nc2cc(Cl)ccc12 , which Kb bin applies?
output: low

input: For COC(=O)CCc1c(-c2ccccc2)c(O)nc2cc(Cl)ccc12 , which Kb bin applies?
output: high

---

# System: Mus musculus
# experimentNotes: Evaluated in vivo for their ability to protect against audiogenic seizure in DBA/2 mice when administered 20 mg/kg ip 30 min prior to noise stimulation out of 8 mice tested
# conditionContext: route intraperitoneal
readoutName: No. of mice protected
Returns: the value as a bare number; no unit string appended.

input: Let me know recorded No. of mice protected for O=C(O)COc1c(-c2ccccc2)c(O)nc2cc(Cl)ccc12 , thanks.
output: 3

input: Let me know recorded No. of mice protected for COC(=O)Cc1c(-c2ccccc2)c(O)nc2cc(Cl)ccc12 , thanks.
output: 1

input: Let me know recorded No. of mice protected for O=S(=O)(Nc1c(-c2ccccc2)c(O)nc2cc(Cl)ccc12)c1ccccc1 , thanks.
output: 1

input: Let me know recorded No. of mice protected for N#CCOc1c(-c2cccc(Oc3ccccc3)c2)c(O)nc2cc(Cl)ccc12 , thanks.
output: 8

input: Let me know recorded No. of mice protected for CS(=O)(=O)Nc1c(-c2ccccc2)c(O)nc2cc(Cl)ccc12 , thanks.
output: 0

input: Let me know recorded No. of mice protected for CN(C)CCNC(=O)C(=O)Nc1c(-c2ccccc2)c(O)nc2cc(Cl)ccc12 , thanks.
output: 2

input: Let me know recorded No. of mice protected for Cc1noc(CCc2c(-c3ccccc3)c(O)nc3cc(Cl)ccc23)n1 , thanks.
output: 4

input: Let me know recorded No. of mice protected for CN(C)CCNC(=O)Cc1c(-c2ccccc2)c(O)nc2cc(Cl)ccc12 , thanks.
output: 0

input: Let me know recorded No. of mice protected for CN(C)CCNc1c(-c2ccccc2)c(O)nc2cc(Cl)ccc12 , thanks.
output: 0

input: Let me know recorded No. of mice protected for NC(=O)CCc1c(-c2ccccc2)c(O)nc2cc(Cl)ccc12 , thanks.
output: 1

input: Let me know recorded No. of mice protected for Nc1c(-c2cccc(Oc3ccccc3)c2)c(O)nc2cc(Cl)ccc12 , thanks.
output: 2

---

# testSystem: Glutamate receptor ionotropic, NMDA 1 (Rattus norvegicus)
# experimentNotes: In vitro ability to displace [3H]L-689,560 binding to glycine site on the N-methyl-D-aspartate (NMDA) glutamate receptor 1 from rat cortical membranes
pIC50: −log10 of the molar value.
# pIC50 annotations

Look over these answered cases.
smiles	pIC50
Oc1nc2cc(Cl)ccc2c(OCc2ccccc2)c1-c1ccccc1	~5.00
CNc1c(-c2ccccc2)c(=O)[nH]c2cc(Cl)ccc12	< 4.00
CO/N=C(\C)COc1c(-c2ccccc2)c(O)nc2cc(Cl)ccc12	~4.30

input: Let me know recorded pIC50 for COc1c(-c2ccccc2)c(=O)[nH]c2cc(Cl)ccc12 , thanks.
output: < 4.00

---

# testSystem: UniProt P35439
# experimentNotes: In vitro ability to displace [3H]L-689,560 binding to glycine site on the N-methyl-D-aspartate (NMDA) glutamate receptor 1 from rat cortical membranes
# log10 IC50 annotations
Hey, these are logged values: log10 of IC50, µM being the unit before logging.

smiles	log10 IC50
O=C(O)COc1c(-c2ccccc2)c(O)nc2cc(Cl)ccc12	-0.96
CN(C)CCOc1c(-c2ccccc2)c(O)nc2cc(Cl)ccc12	1.04

input: Give log10 IC50 for this entry on UniProt P35439: O=C(O)C(=O)Nc1c(-c2ccccc2)c(=O)[nH]c2cc(Cl)ccc12
output: -0.24

input: Give log10 IC50 for this entry on UniProt P35439: Cc1noc(CCc2c(-c3ccccc3)c(O)nc3cc(Cl)ccc23)n1
output: 0.54

input: Give log10 IC50 for this entry on UniProt P35439: CN(C)C(=O)COc1c(-c2ccccc2)c(O)nc2cc(Cl)ccc12
output: 1.06

input: Give log10 IC50 for this entry on UniProt P35439: CC(=O)COc1c(-c2ccccc2)c(O)nc2cc(Cl)ccc12
output: 0.23

input: Give log10 IC50 for this entry on UniProt P35439: COC(=O)COc1c(-c2ccccc2)c(O)nc2cc(Cl)ccc12
output: 0.51

input: Give log10 IC50 for this entry on UniProt P35439: O=c1[nH]c2cc(Cl)ccc2c(CCc2nn[nH]n2)c1-c1ccccc1
output: -0.62
